Entry source: paper PMC3482625

target: Matrix metalloproteinase-9 (MMP-9) (Homo sapiens)
Sequence (P14780 107-707): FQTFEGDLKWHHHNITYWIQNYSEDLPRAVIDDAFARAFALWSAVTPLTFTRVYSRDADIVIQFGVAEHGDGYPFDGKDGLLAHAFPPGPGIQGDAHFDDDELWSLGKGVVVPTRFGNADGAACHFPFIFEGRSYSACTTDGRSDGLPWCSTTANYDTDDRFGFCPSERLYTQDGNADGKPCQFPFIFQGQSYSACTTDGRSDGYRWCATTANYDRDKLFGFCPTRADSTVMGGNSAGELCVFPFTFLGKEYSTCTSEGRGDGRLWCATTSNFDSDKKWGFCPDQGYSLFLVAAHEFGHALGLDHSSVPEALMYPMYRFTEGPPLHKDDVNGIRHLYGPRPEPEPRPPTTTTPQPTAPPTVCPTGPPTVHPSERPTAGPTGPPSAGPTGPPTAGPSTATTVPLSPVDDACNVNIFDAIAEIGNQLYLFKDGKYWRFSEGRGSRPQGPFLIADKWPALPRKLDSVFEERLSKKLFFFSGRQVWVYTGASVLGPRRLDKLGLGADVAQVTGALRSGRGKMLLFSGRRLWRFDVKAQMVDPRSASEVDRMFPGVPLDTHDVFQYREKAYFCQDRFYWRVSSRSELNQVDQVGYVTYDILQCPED
endpointLabel: IC50

* CC(C)(NS(=O)(=O)c1ccc(Oc2ccc(F)cc2)cc1)C(=O)NO [CP471474] | 11.9 nM
